Reference source for all entries: the supplement of paper PMC9170038

# System: MS2 coat protein
# experimentalProtocol: apparent KD of MS2 coat protein; designed switch direction (-1 OFF switch, 1 ON switch): -1; higher = weaker reporter binding
# assaySetup: Eterna round: R95; input ligand: microRNA oligo, concentration not stated
Each record here notes measured apparent KD of MS2 coat protein.
Could you give me the number in nM? Just the number is fine.

Please review the entries below; each comes with its answer.
GAUUAUGCGAGCUUUAGGGACAUGAGGAUCACCCAUGUUCGUCUUAUUGGUCUAGGUACGCUGACAUACCUAAAUCU [JMF 101] (puzzle: Sensor v3, turn-off variant 1)    32.2
UUUUAACAUGAGGAUCACCCAUGUGAGGAUAUCGAAAUUUAUAUUAAUAUUAAUAUUACGAGAAGGCACAUUUU [JMF 26] (puzzle: Exclusion 1)    77
GGUGCGUUUGUGAGGAUAUGCUGGUCCUUGGCUCAGCAGAAGGCACAUGAGGAUCACCCAUGUGGUGUCGUACC [salish99_Bmod_Ex4_033] (puzzle: Brourd's mod of Exclusion 4)    239
GUUAAGUGAGGAUAUGGUAAAUUAAUUAUUAAUUAAUUAAUCCAGAAGGCACAUGAGGAUCACCCAUGUAAAUG [Mat - Exclusion 4 - D87] (puzzle: Exclusion 4)    30.5
CCCUCGCGAGGAUAUGCAUCCUCCCUCAUUUCUUUCACUACACAUGAGGAUCACCCAUGUAGAAGGCGCUCUCC [Nina] (puzzle: Exclusion 2)    41.2
UCCGCCAAAGGAUAUACUGGGCGUUAAAAUCCUCUUAAAAGACAUGAGGAUCACCCAUGUAGAAGGUUGAGGAA [Isererri] (puzzle: Exclusion 2)    201

IN: What apparent KD of MS2 coat protein appears in the records for this sequence with MS2 coat protein? AAUAACAGAGGAUAUACUGUUUUAUGUAUUUAUUAUUUUAAACAUGAGGAUCACCCAUGUAGAAGGCUGAGUAA [JMF 28] (puzzle: Exclusion 2)
OUT: 22.6

IN: Another: CAUGGAACGUAGGAUAUCUCGCGGCUAGGCUGCAGAGAAGGACGCACAUGAGGAUCACCCAUGUGUGAUCCAAA [Tibiataus] (puzzle: Exclusion 6)
OUT: 17

IN: And for CUAGAUCUUCGGAUCUAGUACAUGAGGAUCACCCAUGUUACGAGCAGAUUUUCAUACAAGCUUUUUGCUCGUCUUAU [Sensor v3 - Turn-off variant 1 - 32] (puzzle: Sensor v3, turn-off variant 1) ?
OUT: 72.4

IN: Now the sequence ACAAGCUUUUAGUUCGUCUUAUACACUCCUAAUAAGAAAACAUGAGGAUCACCCAUGUAAGAAAUAAGAACUCAUGU [Sesor Array 2 - Jieux - Sensor v3, turn-off variant 2] (puzzle: Sensor v3, turn-off variant 2)
OUT: 396

IN: Same read-out for AGACAGUCAGGAUAUACAUGAGGAUCACCCAUGUUGAGAUGAGAAAGGGCAGGAAUAGGUAGAAGGGACGAGAG [JR_Exclu3_Sub037] (puzzle: Exclusion 3) ?
OUT: 20.1

* * *

# System: MS2 coat protein
# experimentalProtocol: apparent KD of MS2 coat protein; designed switch direction (-1 OFF switch, 1 ON switch): -1; higher = weaker reporter binding
# assaySetup: input ligand: none
Documented apparent KD of MS2 coat protein across a set of sequences

GAAGAUCGAGUUAGGAUAUGAUUACUAUCCGAAAAUCAGAAGGAACUUGAGGAUCACCCAAGUUUAGAAGAAAU [JR_BMEx4_Sub052] (Eterna round: R97, puzzle: Brourd's mod of Exclusion 4)    14.7 nM
AUGAGGUUAGGAUAUACAUGAGGAUCACCCAUGUUGAAGGGUUAGGUAGGCGGAGCUGGUAGAAGGAACGGAGC [JR_Exclu3_Sub057] (Eterna round: R96, puzzle: Exclusion 3)    55.3 nM
GCACGGUUGGUAGGAUAUCCUUGCGAUUAGCAAGGAGAAGGACCACAUGAGGAUCACCCAUGUACCUCAAUUGUCCUUCCGUGC [Eli exng1 - 026] (Eterna round: R96, puzzle: Exclusion NG 1)    19.3 nM

IN: # input sequence: AUAAAUCAUGUAGGAUAUGCGUGGCAAAGCUAUGCAGAAGGACAUGAGGAUCACCCAUGUGCUUCCGUCUGCGUACAGACGGUA [Mat - Exclusion NG 1 - Mod of JL - D33] (Eterna round: R96, puzzle: Exclusion NG 1) ; wanted: its apparent KD of MS2 coat protein
OUT: 107 nM

IN: Consider next the sequence ACAGACCGUGUUAGGAUAUUAUUUUACUCAAGUAGUGAGAAGGGACAUGAGGAUCACCCAUGUGUGGGAGUUGA [Eternabot (L2) Solution 42] (Eterna round: R97, puzzle: Brourd's mod of Exclusion 4) in the same way.
OUT: 87 nM

IN: Same read-out for UGUUGUCGCGUAGGAUAUUGUCAACAGGCAGUAGGAUAUGCGAAAGCAGAAGGACCGCCAACAGGCGAGAAGGACGGGACAACU [pwkr exNG2 2xF7 2xFMN.6] (Eterna round: R96, puzzle: Exclusion NG 2) ?
OUT: 138 nM

IN: GCACGGAAUGUAGGAUAUUAGUGCGAUUAGCACUGAGAAGGACAUGAGGAUCACCCAUGUUCCUCAAUAAUAAACCUUCCGUGC [Eli exng1 - 044] (Eterna round: R96, puzzle: Exclusion NG 1) ?
OUT: 13.3 nM

IN: Continue with AUGCGUGGCUAGGAUAUUGAGGAAUUUAGUCAGCGAGAAGGAGCCACAUGAGGAUCACCCAUGUGGUGAAGCUC [jl-ex6-4.59 ViennaUCT mod] (Eterna round: R97, puzzle: Exclusion 6)
OUT: 19.1 nM

IN: Another: ACUGAACAUGAGGAUCACCCAUGUAAGGAUAUGCCACACGGGCUACAUAGCCAUCAAAGUAGAAGGUGCUGGGA [Eternabot (Original) Solution 15] (Eterna round: R97, puzzle: Exclusion 1)
OUT: 26.2 nM

* * *

# System: K4 kissing-loop RNA reporter;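 also: bound reporter read as fluorescence of individual clusters on recovered sequencing chips by microscopy, with normalized cluster intensities fitted with a binding model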
# experimentalProtocol: apparent KD of K4 kissing-loop reporter; higher = weaker reporter binding
# assaySetup: Eterna round: R107; input ligand: none
Rule: apparent KD of K4 kissing-loop reporter under 90 nM gives label 0, otherwise label 1.

Examples from the recorded data:
UGUGUUGUUGUGAUGUUUAGUGUUGUUGGGCAGGAUAUCGUAGAGGCGAGAAGGGCUUGUGUGCUGUAUGAGUGAUGUUUGUAGG [xrrxmullin]    label 1
AAUGUACAGGGAAGGAGCGUAGUCCAGUGAUGUUGGAAUUAAAUUCCUGCGAUGUUGGUUAUACAGGUAGGUCGCCCUAAAGUGC [KL-XARG-B22]    label 1
CUAACGGUACGAGUGAUGUUCAGCAAGGAUACCAGCGGACAGUCACGCCCUUGGCAGCCUAGUUUCUACCCGUCGGAAUUUCUUA [theeternabot_sameState_KL_Theo_A_2]    label 1
UGUCAUUGGUCGGCCGCCACUUCAAAAGGUCAAAGACCAGAGUGAUGUUCUUCACGAAACGUGAGAAGGACCGGGACCGAUGACU [TrypBS 12 #SwitchBubble #K4Middle]    label 1
UGGGAUGGUUCGGCCGCCACUAUGGUGCAGUGAUGUUGCAUCGUAGUAAAUCAUUCCAUUUACCGUAGGACCGGGAACCUUACGC [Mavelege]    label 1

Lab note: next sequence to report on.
IN: Is reported apparent KD of K4 kissing-loop reporter greater than or equal to 90 nM here: `GGUAGCAUGGCGGCCGCCACUCUUCAUUAGUGAUGUUAAUGCCGAGUGGGCAAACUCCGCCAGGAGAGGACCGGGCCAUGCUACC`
OUT: label 0

* * *

# Test system: MS2 coat protein
# experimentalProtocol: apparent KD of MS2 coat protein; designed switch direction (-1 OFF switch, 1 ON switch): -1; higher = weaker reporter binding
# assaySetup: Eterna round: R95; input ligand: microRNA oligo, concentration not stated
Collected apparent KD of MS2 coat protein values appear next to each entry.
Reply with just the number (in nM).

IN: Would you kindly share the measured apparent KD of MS2 coat protein for CCGGAAAUGCAGGAUAUCGUAUCGGAAACGAUACGAGAAGGGUAUACAUGAGGAUCACCCAUGUGUCCUACCGG [Fiskers Ex 6 - 21] (puzzle: Exclusion 6) ?
OUT: 20.6

* * *

# Tested on: MS2 coat protein
# experimentalProtocol: apparent KD of MS2 coat protein; higher = weaker reporter binding
# assaySetup: Eterna round: R107; input ligand: theophylline 2 mM
Response field class: string, computed from recorded apparent KD of MS2 coat protein by ranges small value: < 30 nM; mid value: ≥ 30 nM and < 200 nM; large value: ≥ 200 nM

Previously resolved entries follow.
AUUAAAGUUUAUAAGGAAAUUGAAACAGAAGGAGCGUGAGUAAUCACAGGUAGGUCGCUGGUAGUACAUGAGGAUCACCCAUGUU [JR_Nu_SSArginiA_Sub020]    small value
UGCUACAUGAGGAUCACCCAUGUGGGUGAUACCAGCAUUCGUUUAUGCCCUUGGCAGCGCAGCCGAACCAAUCAUUCGGCAGAAA [Artiusar]    large value
ACAUGAGGAUCACCCAUGUAAAUAGCGGAAGGAGCGUGCAAAAGCACAGGUAGGUCGCCGAUAUAAUAAUUGGGUAAUAUAUUAU [#27 Exclusion - Arginine A]    small value

IN: Band assignment needed for CAAUAUAUAUGAAGGAGCGUCGAAAAUGGGUAAACAUGAGGAUCACCCAUGUAAAGGGAACGACAGGUAGGUCGCAUAUAUAUUG [AstromonsSSArgB#8] please.
OUT: large value

IN: Also AAAAGAGGUGGAAGGAGCGGGAGACAUGAGGAUCACCCAUGUGAUAUGACAAGAGGAUCAGCCCAGGUAGGUCGCCAUGUCGAAA [pbbbmullin] ?
OUT: mid value

IN: What do we get for AACAUGAGGAUCACCCAUGUCGGGCCGGUGCGAGGACCGGUACGGCCGCCACUCGAGACAUGAGGAUCACCCAUGUAGGGCGAGA [Exclusion Tryptophan A GF22] ?
OUT: mid value

IN: Now the same for GGGAGGGAGGCGGCCGCCACUGAUUUUCAUAUAUAUAUAACAUGAGGAUCACCCAUGUGGAUAUACAGGACCGGGCCUUUUUUUU [aaaH]
OUT: small value

IN: // repeat for AGUCUUAGUGGAAGGAGCGCAGUCAUAACAUGAGGAUCACCCAUGUCGAGGUGAGGGUCAUUGCAGGUAGGUCGCCAUAAUAGGA [#16 Same State - Arginine B] and report
OUT: large value

IN: Would you kindly repeat that for AUAUAUACAUGAGGAUCACCCAUGUUAUUUCGAGGACCGGUACGGCCGCCACUCGAUAGAGUAGAAGUAUUUUGGGAUAGUUGAU [JR_SSTryptoA_Sub015] ?
OUT: small value

IN: Please do the same for CUCAUCCACGCGGCCGCCACUACUUGUAGGUGUGGGUGUGUUGUGUUACAUGAGGAUCACCCAUGUAGGACCGGGCGUGGAUGAG [Whale] as well.
OUT: mid value

IN: Please answer likewise for GGUUACUCUACGGCCGCCACUGUUAAAUAAUAAACCUGUACAUAAACAUGAGGAUCACCCAUGUACAGGACCGGGUAGUGUAACC [Tryptophan B 8]
OUT: mid value

IN: Same again, this time with AGUUGACAAAAGUCAGCAACAUGAUCCGAAGGAGCGGGCGAAAGCCCAGGUAGGUCGCGGACAUGAGGAUCACCCAUGUCUCCUU [ArgAX 3 #OpenEnded #Sliding]
OUT: mid value

IN: // query: UGUACCAUGUCGGCCGCCACUCAUGAUAAACCUGAGGAUCACCCUGGUAGCGUCAAAGACGCUAUGAGGACCGGGACAUGGUACU [TryBS Zipper 2]
OUT: mid value

IN: Try the sequence ACAUGAGGAUCACCCAUGUCAUGAGGUUCACGAGGACCGGUACGGCCGCCACUCGACAUGAGGGUCACCCGUGAACGGAACACCC [kpmullin]
OUT: small value

IN: Further, for ACGUCGCAUAGGAAAACUAUGUGACGAAAUCGAGGACCGGUACGGCCGCCACUCGUCCUCAACAUGAGGAUCACCCAUGUAAUAA [Mat - Exclusion - Trytophan A - D7] ?
OUT: small value

IN: Let us now turn to CCUAUGCAGUCGGCCGCCACUGAACAUGAGGAUCACCCAUGUAACGGAAACGAAGAUCCUGAAAUCAGGACCGGGACUGUAUAGG [Ex Tryptophan B 3]
OUT: mid value

IN: Moving on to AGAUUCGACACGGCCGCCACUUUCAGUGGCUGGUGUCAUGGUGCACAUGAGGAUCACCCAUGUGGAAGGACCGGGUGUUGAGUCU [XTryp B #26]
OUT: small value

IN: Record: UUGUUGUUUGGAAGGAGCGUGGAUGAGUUAGAACAUGAGGAUCACCCAUGUUGGAUGAUACCGCAGGUAGGUCGCCGGGUGGUGG [11.aA]
OUT: mid value
